- Tested on: primary human T-cells
- TEST_SUMMARY: Proliferation assay after 5 days (CellTiter-Glo, CD3 stimulation; PBS counter screen)
- Assay type: cell-based
- MEASUREMENT_CONDITIONS: Homo sapiens, T-cell, 120 h, primary human T-cells, CD3 stimulation, CellTiter-Glo after 5 days; EC50 of fitted sigmoidal curve; read-out: Tcell Proliferation CD3 EC50
Label key: T means EC50 under 3 µM; F means EC50 of 3 µM or more.

Examples from the recorded data:
N[C@H]1CS(=O)(=O)c2ccc(-c3nnc(-c4ccccc4F)o3)cc2N(Cc2ccc(Cl)cc2)C1=O | F
CC1(C)CN(c2nnc(-c3ccc4c(c3)N(Cc3ccc(Cl)cc3)C(=O)[C@@H](N)CS4(=O)=O)o2)CCO1 | T

Problem: Is it true that EC50 reported for CC(=O)N1CC2CC(c3nnc(-c4cc5c(cc4F)S(=O)(=O)C[C@H](N)C(=O)N5Cc4ccc(Cl)cc4)o3)(C2)C1 is less than 3 µM?
Solution: T

Problem: Is it true that EC50 reported for CN(C)C(=O)c1nnc(-c2cc3c(cc2F)S(=O)(=O)C[C@H](N)C(=O)N3Cc2ccc(Cl)cc2)o1 is less than 3 µM?
Solution: T

Problem: Is it true that EC50 reported for CN1CCN(c2nnc(-c3cc4c(cc3F)S(=O)(=O)C[C@H](N)C(=O)N4Cc3ccc(Cl)cc3)o2)CC1 is less than 3 µM?
Solution: T

----------
- Tested on: primary human T-cells
Labels assigned by EC50 range: small value (below 0.7 µM), mid value (0.7 µM to below 3 µM), large value (3 µM or more)

Examples from the recorded data:
Cc1cc(S(C)(=O)=O)ccc1-c1nnc(-c2ccc3c(c2)N(Cc2ccc(Cl)cc2)C(=O)[C@@H](N)CS3(=O)=O)o1 | mid value
CC(C)(F)c1nc(-c2cc3c(cc2F)S(=O)(=O)C[C@H](N)C(=O)N3Cc2ccc(Cl)cc2)no1 | mid value
N[C@H]1CS(=O)(=O)c2cc(F)c(-c3nnc(NC45CC(C4)C5)o3)cc2N(Cc2ccc(Cl)cc2)C1=O | large value

Problem: Given CCc1cn(-c2cc3c(cc2F)S(=O)(=O)C[C@H](N)C(=O)N3Cc2ccc(Cl)cc2)nn1 , name the class its EC50 places it in.
Solution: large value

Problem: Given CC(C)(C)c1nnc(-c2cc3c(cc2F)S(=O)(=O)C[C@H](N)C(=O)N3Cc2ccc(S(C)(=O)=O)c(F)c2)o1 , name the class its EC50 places it in.
Solution: large value

Problem: Given CN(C)c1cc2c(cc1-c1nnc(C(C)(C)C)o1)N(Cc1ccc(Cl)cc1)C(=O)[C@@H](N)CS2(=O)=O , name the class its EC50 places it in.
Solution: large value

Problem: Given COC(C)(C)c1nnc(-c2ccc3c(c2)N(Cc2ccc(Cl)cc2)C(=O)[C@@H](N)CS3(=O)=O)o1 , name the class its EC50 places it in.
Solution: large value

Problem: Given CC(C)(C)c1nnc(-c2cc3c(cc2F)S(=O)(=O)C[C@H](N)C(=O)N3Cc2ccc(Cl)cc2)o1 , name the class its EC50 places it in.
Solution: small value

Problem: Given N[C@H]1CS(=O)(=O)c2cc(F)c(-c3nnc(N4CC5(C4)CC(F)(F)C5)o3)cc2N(Cc2ccc(Cl)cc2)C1=O , name the class its EC50 places it in.
Solution: small value

Problem: Given CC(C)(CO)n1nnc(-c2cc3c(cc2F)S(=O)(=O)C[C@H](N)C(=O)N3Cc2ccc(Cl)cc2)n1 , name the class its EC50 places it in.
Solution: mid value

Problem: Given N[C@H]1CS(=O)(=O)c2cc(F)c(-c3noc(N4CCOC(C(F)(F)F)C4)n3)cc2N(Cc2ccc(Cl)cc2)C1=O (stereo partly drawn) , name the class its EC50 places it in.
Solution: small value

Problem: Given N[C@H]1CS(=O)(=O)c2cc(F)c(-c3nnc(N4CC5COCC(C4)C5(F)F)o3)cc2N(Cc2ccc(Cl)cc2)C1=O , name the class its EC50 places it in.
Solution: large value

----------
- Tested on: primary human T-cells
- TEST_SUMMARY: Proliferation assay after 5 days (CellTiter-Glo, CD3 stimulation; PBS counter screen)
- Assay type: cell-based
- MEASUREMENT_CONDITIONS: Homo sapiens, T-cell, 120 h, CD3 stimulation, 5 days; normalized to reference compound A1 as stimulator control = 100%, DMSO neutral control; read-out: Emax proliferation (% activation)
MEASURED_METRIC: Emax
Reply with a number, then the unit it belongs to.

# annotated cases, reported Emax shown
N[C@H]1CS(=O)(=O)c2ccc(-c3nnc(C4(C5CC5)CCCO4)o3)cc2N(Cc2ccc(Cl)cc2)C1=O (stereo partly shown) [Example 381] | 119%
N[C@H]1C[S+]([O-])c2cc(F)c(-c3noc(N4CCOCC4)n3)cc2N(Cc2ccc(Cl)cc2)C1=O (single isomer, unassigned; epimer a) [Example 209] | 92%
CC(C)(C)c1nnc(-c2cc3c(cc2F)S(=O)(=O)C[C@H](NC(=O)CN)C(=O)N3Cc2ccc(Cl)cc2)o1 [Example 266] | 137%
N[C@H]1CS(=O)(=O)c2cc(F)c(-c3nnc(-c4ccccc4F)o3)cc2N(Cc2ccc(Cl)cc2)C1=O [Example 108] | 117%

Problem: Endpoint output: Emax of CC(C)(C)c1nnc(-c2cc3c(cc2F)SC[C@H](N)C(=O)N3Cc2ccc(OC(F)(F)F)cc2)o1 [Example 54] . Value?
Solution: 116%

Problem: Endpoint output: Emax of N[C@H]1CS(=O)(=O)c2cc(F)c(-c3nnc(CC(F)(F)F)o3)cc2N(Cc2ccc(OC(F)(F)F)cc2)C1=O [Example 56] . Value?
Solution: 136%

Problem: Endpoint output: Emax of Cc1ccc(-c2nnc(-c3cc4c(cc3F)S(=O)(=O)C[C@H](N)C(=O)N4Cc3ccc(Cl)cc3)o2)cc1 [Example 106] . Value?
Solution: 111%

----------
- SUBJECT_OF_TEST: hDGKalpha(1-735)-N-His (Homo sapiens (Human))
- Sequence (P23743 whole entry): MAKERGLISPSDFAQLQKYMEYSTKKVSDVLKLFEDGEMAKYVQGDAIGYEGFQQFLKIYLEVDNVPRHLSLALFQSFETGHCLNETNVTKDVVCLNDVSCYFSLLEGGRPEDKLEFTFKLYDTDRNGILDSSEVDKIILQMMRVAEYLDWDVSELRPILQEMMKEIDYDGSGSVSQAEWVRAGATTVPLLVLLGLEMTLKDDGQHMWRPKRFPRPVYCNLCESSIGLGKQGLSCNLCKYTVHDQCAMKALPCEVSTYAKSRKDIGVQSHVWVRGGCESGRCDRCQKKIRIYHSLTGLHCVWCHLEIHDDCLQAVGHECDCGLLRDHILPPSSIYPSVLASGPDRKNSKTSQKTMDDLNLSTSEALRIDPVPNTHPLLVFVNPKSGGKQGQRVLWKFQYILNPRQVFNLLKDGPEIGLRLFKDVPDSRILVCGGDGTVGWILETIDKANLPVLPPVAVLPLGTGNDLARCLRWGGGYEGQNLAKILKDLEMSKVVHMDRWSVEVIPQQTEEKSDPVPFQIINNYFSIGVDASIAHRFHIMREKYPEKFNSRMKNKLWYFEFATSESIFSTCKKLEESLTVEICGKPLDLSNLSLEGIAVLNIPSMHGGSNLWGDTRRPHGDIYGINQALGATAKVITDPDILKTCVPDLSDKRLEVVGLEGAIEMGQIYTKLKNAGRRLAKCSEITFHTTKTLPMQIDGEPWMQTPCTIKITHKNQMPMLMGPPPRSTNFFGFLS
Label key: y means IC50 under 2000 nM; n means IC50 of 2000 nM or more.

CN1CCCC(F)(c2nnc(-c3ccc4c(c3)N(Cc3ccc(Cl)cc3)C(=O)[C@@H](N)CS4(=O)=O)o2)C1 (stereo partly drawn) | n
N[C@H]1CS(=O)(=O)c2ccc(-c3nnc(N4CCOC(C(F)(F)F)C4)o3)cc2N(Cc2ccc(Cl)cc2)C1=O (stereo partly drawn) | n
CC(C)(CO)n1nnc(-c2cc3c(cc2F)S(=O)(=O)C[C@H](N)C(=O)N3Cc2ccc(Cl)cc2)n1 | y
Cc1cc(C)c(-c2nc(-c3cc4c(cc3F)S(=O)(=O)C[C@H](N)C(=O)N4Cc3ccc(Cl)cc3)no2)cn1 | y
COC(=O)N1CC2CC(c3nnc(-c4cc5c(cc4F)S(=O)(=O)C[C@H](N)C(=O)N5Cc4ccc(Cl)cc4)o3)(C2)C1 | y
N[C@H]1CS(=O)(=O)c2cc(F)c(-c3nnc(NC4CCC4)o3)cc2N(Cc2ccc(Cl)cc2)C1=O | y
Cc1ccc(-c2nnc(-c3ccc4c(c3)N(Cc3ccc(Cl)cc3)C(=O)[C@@H](N)CS4(=O)=O)o2)cn1 | n
CC(C)(CO)c1nnc(-c2cc3c(cc2F)S(=O)(=O)C[C@H](N)C(=O)N3Cc2ccc(Cl)cc2)o1 | y
N[C@H]1CS(=O)(=O)c2ccc(-c3nnc(N4[C@@H]5CC[C@H]4COC5)o3)cc2N(Cc2ccc(Cl)cc2)C1=O | y
COC(F)(c1nc(-c2cc3c(cc2F)S(=O)(=O)C[C@H](N)C(=O)N3Cc2ccc(Cl)cc2)no1)C(F)(F)F (stereo partly drawn) | y

Problem: Is it true that IC50 reported for N[C@H]1CS(=O)(=O)c2ccc(-c3nnc(C4(N)CCCCC4)o3)cc2N(Cc2ccc(OC(F)(F)F)cc2)C1=O is less than 2000 nM?
Solution: n

Problem: Is it true that IC50 reported for CC(C)(C)c1nnc(-c2ccc3c(c2)N(Cc2ccc(OC(F)(F)C(F)F)cc2)C(=O)[C@@H](N)CS3(=O)=O)o1 is less than 2000 nM?
Solution: y

----------
- System: primary human T-cells
MEASURED_METRIC: EC50 (nM)
Numeric only. Scale: nM

# annotated cases, reported EC50 shown
N[C@H]1CS(=O)(=O)c2ccc(-c3nnc(N4CCC(F)(F)CC4)o3)cc2N(Cc2ccc(Cl)cc2)C1=O | 937
N[C@H]1CS(=O)(=O)c2cc(F)c(-c3nnc(NC45CC(Cl)(C4)C5)o3)cc2N(Cc2ccc(Cl)cc2)C1=O | 911
CN1CCCC(F)(c2nnc(-c3ccc4c(c3)N(Cc3ccc(Cl)cc3)C(=O)[C@@H](N)CS4(=O)=O)o2)C1 (some centres unmarked) | 792
CC(C)(C)n1nnc(-c2cc3c(cc2F)S(=O)(=O)C[C@H](NC(=O)CN)C(=O)N3Cc2ccc(Cl)cc2)n1 | 855

// moving on: another record for EC50
Problem: Lab note: need EC50 for CC(C)N(C)C(=O)c1nnc(-c2cc3c(cc2F)S(=O)(=O)C[C@H](N)C(=O)N3Cc2ccc(Cl)cc2)o1 on primary human T-cells, anyone have it?
Solution: 756
